These measurements were taken from patent US8575156B2.

molecular target: 11β-HSD1 (Homo sapiens, UniProt P28845); assay: biochemical; conditions: read-out: Average % inhibition at 111.1 nM, Biological Test Example 1; 111.1 nM compound
Sequence (P28845 whole entry): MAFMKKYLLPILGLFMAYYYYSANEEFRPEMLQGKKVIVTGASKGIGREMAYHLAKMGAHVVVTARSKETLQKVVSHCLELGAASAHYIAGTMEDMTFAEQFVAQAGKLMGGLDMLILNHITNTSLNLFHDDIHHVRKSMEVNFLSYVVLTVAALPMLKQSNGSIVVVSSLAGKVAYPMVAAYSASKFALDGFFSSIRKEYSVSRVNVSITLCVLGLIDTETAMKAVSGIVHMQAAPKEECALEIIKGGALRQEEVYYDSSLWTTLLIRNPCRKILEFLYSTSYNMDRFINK
MEASURED PROPERTY: inhibition at 0.1111 µM (%)
Give bare numbers, in %.

- COMPOUND: "O=C1OC(CCO)(c2ccccc2)CCN1c1cccc(-c2c(Cl)cccc2Cl)c1 (centres unmarked) [EXAMPLE 69]"
  UNIT ABBREV: "%"
  inhibition at 0.1111 µM: 94.8

Required: inhibition at 0.1111 µM, one value per compound below.
1. C=CC[C@]1(c2ccc(F)cc2)CCN([C@@H](C)c2ccc(C(=O)OC)cc2)C(=O)O1 [EXAMPLE 124]
2. O=C1OC(CCO)(c2ccc(F)cc2)CCN1c1cccc(-c2ccc(F)cc2F)n1 (centres unmarked) [EXAMPLE 108]
3. CC1(c2ccccc2)CCN(c2cccc(-c3ccccc3CO)c2)C(=O)O1 (centres unmarked) [EXAMPLE 35]
4. C[C@@H](c1ccccc1)N1CCC(C)(c2ccc(CN3CCOCC3)cc2)OC1=O (some centres unmarked) [EXAMPLE 92]
5. CC1(c2ccccc2)CCN(c2nccc(-c3c(Cl)cccc3Cl)n2)C(=O)O1 (centres unmarked) [EXAMPLE 60]
6. C[C@@H](c1ccc(-c2ccc(F)cc2F)cc1)N1CC[C@](CC(O)CO)(c2ccc(F)cc2)OC1=O (single isomer, unassigned) [EXAMPLE 52 Isomer 2]
7. O=C1OC(CCO)(c2ccccc2F)CCN1c1ccc(F)c(-c2ccc(F)cc2)c1 (centres unmarked) [EXAMPLE 67]

1: 96.8; 2: 55.4; 3: 26.7; 4: 35; 5: 51.3; 6: 97; 7: 96.6

---

target: 11β-HSD1 (Homo sapiens); test: biochemical; conditions: read-out: Average % inhibition at 111.1 nM, Biological Test Example 1; 111.1 nM compound
MEASURED PROPERTY: inhibition at 0.1111 µM (%)
Numbers only, in %.

Check out these entries, answers already filled in.
- COMPOUND: "CC1(c2ccccc2)CCN(c2cccc(-c3ccc(CNS(C)(=O)=O)cc3)c2)C(=O)O1 (stereo not shown)"
  inhibition at 0.1111 µM, %: 24
- COMPOUND: "C=CC[C@]1(c2ccc(F)cc2)CCN([C@@H](C)c2ccc(C(C)(C)O)cc2)C(=O)O1"
  inhibition at 0.1111 µM, %: 93.8
- COMPOUND: "CC1(c2ccccc2)CCN(c2cccc(Oc3ccccc3)c2)C(=O)O1 (stereo not shown)"
  inhibition at 0.1111 µM, %: 72.2
- COMPOUND: "O=C1OC(CCO)(c2ccccc2)CCN1c1cccc(-c2ccc(F)cc2Cl)n1 (stereo not shown)"
  inhibition at 0.1111 µM, %: 97.6
- COMPOUND: "CC(C)NS(=O)(=O)c1ccc(-c2cccc(N3CCC(C)(c4ccccc4)OC3=O)c2)cc1 (stereo not shown)"
  inhibition at 0.1111 µM, %: 19.2
- COMPOUND: "O=C1OC(CCO)(c2ccc(F)cc2)CCN1c1cccc(-c2ccc(F)cc2)n1 (stereo not shown)"
  inhibition at 0.1111 µM, %: 86.9
- COMPOUND: "O=C1OC(CCO)(c2ccccc2F)CCN1c1ccc(F)c(-c2ccc(F)cc2F)c1 (stereo not shown)"
  inhibition at 0.1111 µM, %: 88.7
- COMPOUND: "CC1(c2cccc(Cl)c2)CCN(c2cccc(-c3ccccc3)c2)C(=O)O1 (stereo not shown)"
  inhibition at 0.1111 µM, %: 75.3

Required: inhibition at 0.1111 µM, one value per compound below.
1. CC1(c2ccccc2)CCN(c2cccc(-c3cccc(-c4nnn[nH]4)c3)c2)C(=O)O1 (stereo not shown)
2. C=CCC1(c2ccc(F)cc2)CCN([C@@H](CC)c2ccc(Br)cc2)C(=O)O1 (single isomer, unassigned) [EXAMPLE 130 Isomer 2]
3. CC1(c2ccccc2)CCN(c2cccc(-c3cccc(C#N)c3)c2)C(=O)O1 (stereo not shown)
4. O=C1OC(CCO)(c2ccccc2)CCN1c1cccc(-c2ccc(F)cc2Cl)c1 (stereo not shown)
5. C[C@@H](c1ccc(-c2ccc(F)cc2)cc1)N1CC[C@@](CCCO)(c2cccs2)OC1=O

15.4
87.7
58.8
92.9
81.8

Required: inhibition at 0.1111 µM, one value per compound below.
1. O=C1OC(CCO)(c2ccc(F)cc2)CCN1c1cccc(-c2ccc(F)cc2Cl)n1 (stereo not shown)
2. COC(=O)c1cccc(-c2cccc(N3CCC(C)(c4ccccc4)OC3=O)c2)c1 (stereo not shown)
3. CC1(c2ccccc2)CCN(c2cccc(-c3cc(F)cc(F)c3)c2)C(=O)O1 (stereo not shown)

[96.8, 17.8, 67]

Required: inhibition at 0.1111 µM, one value per compound below.
1. CC1(c2ccccc2)CCN(c2cccc(-c3ccc(O)cc3)c2)C(=O)O1 (stereo not shown)
2. C[C@@H](C1CCCCC1)N1CC[C@](CCCO)(c2ccc(F)cc2)OC1=O
3. CC1(c2ccccc2)CCN(c2cccc(-c3c(Cl)cccc3Cl)c2)C(=O)O1 (stereo not shown)

77.7
95.6
88.9

Required: inhibition at 0.1111 µM, one value per compound below.
1. C[C@@H](c1ccc(Br)cc1)N1CC[C@](CC(O)CO)(c2ccc(F)cc2)OC1=O (single isomer, unassigned) [EXAMPLE 144 Isomer 1]
2. C[C@@H](c1ccc(C2CC2)cc1)N1CC[C@](CCCO)(c2ccc(F)cc2)OC1=O

[90.6, 94]

---

molecular target: 11β-HSD1 (Homo sapiens, UniProt P28845); test: biochemical; details: IC50 Range, Biological Test Example 1; microsomes from CHO cells overexpressing human 11β-HSD1
pIC50: −log10 of the molar value.
MEASURED PROPERTY: pIC50

Required: pIC50, one value per compound below.
1. C[C@@H](c1ccc(Br)cc1)N1CC[C@](CCN2CCNC(=O)C2)(c2ccc(F)cc2)OC1=O [EXAMPLE 379]
2. C[C@@H](c1ccc(-c2ccc(F)cc2)cc1)N1CC[C@@](CCO)(c2cccs2)OC1=O (single isomer, unassigned) [EXAMPLE 218 Isomer 2]

1. > 7.00
2. > 7.00

---

target: 11β-HSD1 (Homo sapiens); assay: biochemical; details: read-out: Average % inhibition at 100 nM, Biological Test Example 1; 100 nM
Would you mind telling me the reported inhibition at 0.1 µM of each entry?
Answers are plain numbers, in %.

- COMPOUND: "C[C@@H](C1CCCCC1)N1CC[C@](CCC(N)=O)(c2ccc(F)cc2)OC1=O [EXAMPLE 317]"
  UNIT ABBREV: "%"
  inhibition at 0.1 µM: 87.5
- COMPOUND: "COc1ccc([C@H](C)N2CC[C@@](C)(c3ccc(CO)cc3)OC2=O)cc1 (single isomer, unassigned) [EXAMPLE 429 Isomer 2]"
  UNIT ABBREV: "%"
  inhibition at 0.1 µM: 23
- COMPOUND: "CC(C#N)C[C@]1(c2ccc(F)cc2)CCN([C@@H](C)c2ccc(Br)cc2)C(=O)O1 (stereo partly drawn) [EXAMPLE 520]"
  UNIT ABBREV: "%"
  inhibition at 0.1 µM: 98
- COMPOUND: "C[C@@H](c1ccc(Cl)cc1)N1CC[C@](CCO)(c2ccc(F)cc2)OC1=O [EXAMPLE 380]"
  UNIT ABBREV: "%"
  inhibition at 0.1 µM: 97.2
- COMPOUND: "C[C@@H](c1ccc(C(F)(F)F)cc1)N1CC[C@](CCO)(c2ccc(F)cc2)OC1=O [EXAMPLE 387]"
  UNIT ABBREV: "%"
  inhibition at 0.1 µM: 95.8
- COMPOUND: "CC(O)C[C@]1(c2ccc(F)cc2)CCN([C@@H](C)c2ccc(Br)cc2)C(=O)O1 (single isomer, unassigned) [EXAMPLE 371 Isomer 1]"
  UNIT ABBREV: "%"
  inhibition at 0.1 µM: 98.4
- COMPOUND: "C[C@@H](c1ccc(Cl)cc1)N1CC[C@](CC(C)(C)O)(c2ccc(F)cc2)OC1=O [EXAMPLE 381]"
  UNIT ABBREV: "%"
  inhibition at 0.1 µM: 97.2
- COMPOUND: "C[C@@H](c1ccc(Br)cc1)N1CC[C@](CCNS(C)(=O)=O)(c2ccccc2)OC1=O [EXAMPLE 507]"
  UNIT ABBREV: "%"
  inhibition at 0.1 µM: 96.1

Required: inhibition at 0.1 µM, one value per compound below.
1. Cc1cc(-c2ccc([C@H](C)N3CC[C@](CCCO)(c4ccc(F)cc4)OC3=O)cc2)ccn1 [EXAMPLE 311]
2. C[C@@H](c1ccc(Br)cc1)N1CC[C@](CCC(=O)O)(c2ccc(F)cc2)OC1=O [EXAMPLE 526]

96.7
54.6

---

molecular target: 11β-HSD1 (Homo sapiens, UniProt P28845); assay: biochemical; conditions: read-out: Average % inhibition at 100 nM, Biological Test Example 1; 100 nM
MEASURED PROPERTY: inhibition at 0.1 µM (%)
One number for each entry, in %.

Check out these entries, answers already filled in.
- COMPOUND: "C[C@@H](c1ccc(Br)cc1)N1CC[C@](CCN2CCCS2(=O)=O)(c2ccccc2)OC1=O [EXAMPLE 513]"
  MEASURED PROPERTY: "inhibition at 0.1 µM"
  TEST RESULT: 84.4
- COMPOUND: "C[C@@H](c1ccc(Br)cc1)N1CC[C@@](C)(c2ccc(F)cc2)OC1=O (single isomer, unassigned) [EXAMPLE 518 Isomer 1]"
  MEASURED PROPERTY: "inhibition at 0.1 µM"
  TEST RESULT: 92.2
- COMPOUND: "C[C@@H](c1ccc(Br)cc1)N1CC[C@](CCN2CCC2)(c2ccc(F)cc2)OC1=O [EXAMPLE 374]"
  MEASURED PROPERTY: "inhibition at 0.1 µM"
  TEST RESULT: 52.2

Required: inhibition at 0.1 µM, one value per compound below.
1. CC(=O)N(C)CC[C@]1(c2ccccc2)CCN([C@@H](C)c2ccc(Br)cc2)C(=O)O1 [EXAMPLE 586]
2. C[C@@H](c1ccc(-c2ccc(F)cc2)cc1)N1CC[C@](CCN2CCCC2)(c2ccc(F)cc2)OC1=O [EXAMPLE 464]
3. C[C@@H](c1ccc(F)cc1)N1CC[C@](CCO)(c2ccc(F)cc2)OC1=O [EXAMPLE 406]
4. COc1ccc([C@H](C)N2CC[C@](CCC(C)(C)O)(c3ccccc3)OC2=O)cc1 [EXAMPLE 428]

1. 98
2. 80.2
3. 86.4
4. 82
